Each recorded value in this set is attributed to patent US20250320213A1.

pEC50 values for the molecules below.
# System tested: STAT6 (Homo sapiens)
# Construct: stably transfected HaCaT keratinocyte cell line, which expresses NanoLuc luciferase reporter gene under the transcriptional control of the STAT6 responsive promoter; endogenous in cells; host or cells: HaCaT keratinocyte reporter cell line (stably transfected with a NanoLuc reporter)
# Test description: STAT6 Reporter Luciferase Assay (IL-13 stimulated HaCaT keratinocyte NanoLuc reporter cells)
# Type: cell-based
# Settings: STAT6 NanoLuc luciferase reporter, IL-13 stimulated HaCaT keratinocyte cells; read-out: Reporter EC50
pEC50: −log10 of the molar value.
Readout type: pEC50

- CN(C)C(=O)Nc1ccc(CNC(=O)c2nn(C)c3c2CN(c2ccc(C(=O)N(C)C)cn2)CC3(C)C)cc1 [Example 105]: 8.52
- CC(C)n1nc(C(=O)NCc2ccc(NC(=O)N(C)C)cc2)c2c1CCN(c1ccc(N3CC[C@@H](F)C3=O)cn1)C2 [Example 98]: 7.32
- CC(C)n1nc(C(=O)NCc2ccc(NC(=O)N(C)C)cc2)c2c1[C@H](C)CN(c1ccc(C(=O)N(C)C)cn1)C2 (single isomer, unassigned) [Example 112]: 7.82

----------
# System tested: STAT6 (Homo sapiens, UniProt P42226)
# Construct: stably transfected HaCaT keratinocyte cell line, which expresses NanoLuc luciferase reporter gene under the transcriptional control of the STAT6 responsive promoter; endogenous in cells; host or cells: HaCaT keratinocyte reporter cell line (stably transfected with a NanoLuc reporter)
# Sequence (P42226 whole entry): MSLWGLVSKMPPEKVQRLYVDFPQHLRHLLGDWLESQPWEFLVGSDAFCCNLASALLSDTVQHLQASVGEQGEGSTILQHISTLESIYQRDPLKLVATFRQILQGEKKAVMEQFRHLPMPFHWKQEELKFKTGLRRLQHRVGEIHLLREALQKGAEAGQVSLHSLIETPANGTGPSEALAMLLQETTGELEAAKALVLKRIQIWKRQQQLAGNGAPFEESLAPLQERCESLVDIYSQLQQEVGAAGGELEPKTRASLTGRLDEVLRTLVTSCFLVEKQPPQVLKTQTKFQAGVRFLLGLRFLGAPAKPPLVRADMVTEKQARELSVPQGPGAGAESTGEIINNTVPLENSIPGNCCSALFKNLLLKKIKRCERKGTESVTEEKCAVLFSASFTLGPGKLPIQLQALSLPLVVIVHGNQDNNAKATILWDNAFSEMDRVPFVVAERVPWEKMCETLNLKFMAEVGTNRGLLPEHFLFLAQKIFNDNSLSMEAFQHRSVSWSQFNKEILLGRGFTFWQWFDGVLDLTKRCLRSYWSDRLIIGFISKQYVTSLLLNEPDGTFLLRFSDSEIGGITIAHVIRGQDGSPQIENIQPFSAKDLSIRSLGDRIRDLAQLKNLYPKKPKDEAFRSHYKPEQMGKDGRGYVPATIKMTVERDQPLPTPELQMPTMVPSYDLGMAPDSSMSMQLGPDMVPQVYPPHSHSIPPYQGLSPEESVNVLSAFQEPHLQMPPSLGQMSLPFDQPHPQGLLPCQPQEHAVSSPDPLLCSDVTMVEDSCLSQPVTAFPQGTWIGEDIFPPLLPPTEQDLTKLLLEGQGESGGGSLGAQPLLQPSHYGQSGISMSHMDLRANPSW
# Test description: STAT6 Reporter Luciferase Assay (IL-13 stimulated HaCaT keratinocyte NanoLuc reporter cells)
# Type: cell-based
# Settings: IL-13 stimulated HaCaT STAT6 NanoLuc reporter cells; read-out: Reporter EC50
pEC50: −log10 of the molar value.
Readout type: pEC50

• CCn1nc(C(=O)NCc2ccc(NC(=O)N(C)C)cc2)c2c1CC(C(F)(F)F)N(c1ccc(C(=O)N(C)C)cn1)C2 (single isomer, unassigned) [Example 250] = 8.70
• CC(C)n1nc(C(=O)NCc2ccc(NC(=O)N3CCN(C)CC3)cc2)c2c1C(C(F)(F)F)CN(c1ccc(C(=O)N(C)C)cn1)C2 (single isomer, unassigned) [Example 693] = 7.80
• COc1nc(-c2ccc(CNC(=O)c3nn(C(C)C)c4c3CN(c3ccc(C(=O)N(C)C)cc3)C[C@@H]4C)cc2)ncc1N = 7.09
• CNC(=O)Nc1ccc(CNC(=O)c2n[nH]c3c2CN(c2ccc(C(=O)N(C)C)cn2)CC3)cc1 = 5.40
• CC(C)n1nc(C(=O)NCc2ccc(NC(=O)N3CCN(C)CC3)c(F)c2)c2c1[C@@H](C)CN(c1ccc(C(=O)N3Cc4cccnc4C3)cn1)C2 = 9.30
• CC(C)n1nc(C(=O)NCc2ccc(NC(=O)N(C)C)cc2)c2c1CCN(c1ccc(C3CCCO3)cn1)C2 (single isomer, unassigned) [Example 362] = 6.08
• CC(C)n1nc(C(=O)NCc2ccc(NC(=O)N(C)C)cc2)c2c1CCN(c1ccc(C(=O)N3CC(C#N)C3)cn1)C2 = 5.97
• CC(C)n1nc(C(=O)NCc2ccc(NC(=O)N(C)C)cc2)c2c1C(C(F)(F)F)CN(c1ncc(C(=O)N(C)C)cn1)C2 (single isomer, unassigned) [Example 462] = 7.41
• CC(=O)N1CCN(C(=O)c2ccc(N3CCc4c(c(C(=O)NCc5ccc(NC(=O)N(C)C)cc5)nn4C(C)C)C3)nc2)CC1 = 6.79
• CNC1CN(C(=O)Nc2ccc(CNC(=O)c3nn(C(C)C)c4c3CN(c3ccc(C(=O)N(C)C)cc3)C[C@@H]4C)cc2F)C1 = 8.40
• CC(C)n1nc(C(=O)NCc2ccc(NC(=O)N(C)C)cc2)c2c1CC(C(F)(F)F)N(c1ccc(C(=O)N(C)C)cn1)C2 (single isomer, unassigned) [Example 276] = 8.70
• CC(C)n1nc(C(=O)NCc2ccc(-c3ccn(C)n3)cc2)c2c1[C@@H](C)CN(c1ccc(C(=O)N(C)C)cc1)C2 = 6.75
